# ASSAY_TEXT: Acute toxicity (acute 7-day toxicity following a single oral administration, LD50 by probit analysis)
# CONDITION_NOTES: mouse, in vivo, NMR1 mice
Property: LD50 at 168 h; scope: individual compounds
METRIC: LD50 at 168 h

>  <COMPOUND>
CCN1CCN2c3ccccc3C(c3cccs3)=NCC2C1 (centres unmarked)

>  <METRIC>
LD50 at 168 h

>  <ENDPOINT_RESULT>
~420 mg/kg

$$$$
>  <COMPOUND>
C=CCN1CCN2c3ccccc3C(c3cccs3)=NCC2C1 (centres unmarked)

>  <METRIC>
LD50 at 168 h

>  <ENDPOINT_RESULT>
~790 mg/kg

$$$$
>  <COMPOUND>
CN1CCN2c3ccccc3C(c3cccs3)=NCC2C1 (centres unmarked)

>  <METRIC>
LD50 at 168 h

>  <ENDPOINT_RESULT>
~440 mg/kg

$$$$
>  <COMPOUND>
Cc1ccc2c(c1)C(c1ccc(Br)s1)=NCC1COCCN21 (centres unmarked)

>  <METRIC>
LD50 at 168 h

>  <ENDPOINT_RESULT>
> 811 mg/kg

$$$$
>  <COMPOUND>
CN1CCN2c3ccc(Cl)cc3C(c3cccn3C)=NCC2C1 (centres unmarked)

>  <METRIC>
LD50 at 168 h

>  <ENDPOINT_RESULT>
> 893 mg/kg

$$$$
>  <COMPOUND>
COc1ccc2c(c1)N1CCN(C)CC1C[N+]([O-])=C2c1ccco1 (centres unmarked)

>  <METRIC>
LD50 at 168 h

>  <ENDPOINT_RESULT>
> 704 mg/kg

$$$$
>  <COMPOUND>
COc1ccc2c(c1)N1CCN(C)CC1CN=C2c1cccs1 (centres unmarked)

>  <METRIC>
LD50 at 168 h

>  <ENDPOINT_RESULT>
> 704 mg/kg

$$$$
>  <COMPOUND>
CC(C)CCN1CCN2c3ccccc3C(c3cccs3)=NCC2C1 (centres unmarked)

>  <METRIC>
LD50 at 168 h

>  <ENDPOINT_RESULT>
~730 mg/kg

$$$$
>  <COMPOUND>
Cc1ccc2c(c1)C(c1ccco1)=[N+]([O-])CC1CN(C)CCN21 (centres unmarked)

>  <METRIC>
LD50 at 168 h

>  <ENDPOINT_RESULT>
> 311 mg/kg

$$$$
>  <COMPOUND>
Cc1ccc2c(c1)C(c1ccco1)=NCC1CN(C)CCN21 (centres unmarked) [Example 10a]

>  <METRIC>
LD50 at 168 h

>  <ENDPOINT_RESULT>
> 422 mg/kg

$$$$
>  <COMPOUND>
CN1CCN2c3cc(F)ccc3C(c3cccs3)=NCC2C1 (centres unmarked)

>  <METRIC>
LD50 at 168 h

>  <ENDPOINT_RESULT>
> 315 mg/kg

$$$$
